- EXPERIMENTAL_PROTOCOL: thallium influx changes without GIRK channels – cell-based, HEK-293 rmGlu8, no GIRK, thallium flux, counter-screen for GIRK activator project, confirmation (AID 623868)
- PARTICULARS: thallium flux fluorescence, at 10 µM, actives lie on both sides, codes: 1 enhancer, -1 blocker, 0 none, thallium stimulus containing EC20 glutamate
The campaign covered roughly 2,100 compounds. About 760 (36%) were called active.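 Rule for the calls: active = thallium-flux fluorescence traces judged by eye to show enhanced or reduced glutamate response, manual score 1 or -1, so both directions (some results past the limit were not filed as active); inactive = the rest, including fluorescent or raised-baseline compounds.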 The list is a sample of the results.
Choose the fitting class; nothing outside TRUE (active), FALSE (inactive) is accepted.

Cc1ccccc1C(=O)Nc1ccc2nc3n(c(=O)c2c1)CCC3    FALSE
CCN(CC)CCn1c(=S)[nH]c2cc(Cl)ccc2c1=O    FALSE
CCOc1ccc(-c2nc(-c3cccnc3)no2)cc1OCC    FALSE
Cc1ccc(S(=O)(=O)N/N=C/c2ccc(OC3CSC3)cc2)cc1    FALSE
CN(C)/C=C/C(=O)/C=C/c1cn(-c2ncc(C(F)(F)F)cc2Cl)c2ccccc12    FALSE

Write down the call the test reported for this molecule. Item: CCC/C(=N/NC(=O)c1cccc(Cl)c1)c1ccccc1
TRUE

Write down the call the test reported for this molecule. Item: CN(C=O)CP(=O)(O)CCN1CCCC1=O
FALSE

Write down the call the test reported for this molecule. Item: COc1ccc(OC)c(S(=O)(=O)N(C)CC(=O)N2CCN(c3ccccc3F)CC2)c1
FALSE

Write down the call the test reported for this molecule. Item: CC(=O)c1cccc(NC(=O)C2CCCN2S(=O)(=O)c2cccc3cccnc23)c1 (centres undefined)
FALSE

Write down the call the test reported for this molecule. Item: CC12CN(Cc3ccccc3)CC(C)(CN(Cc3ccccc3)C1)C2=NO
FALSE

Write down the call the test reported for this molecule. Item: CCN(CC)CCn1c(NC(=O)c2ccc(Cl)cc2)nc2ccccc21
FALSE

Write down the call the test reported for this molecule. Item: CC1CCCCN1Cc1nc2c(c(=O)n(C)c(=O)n2C)n1CCc1ccccc1 (centres undefined)
FALSE
